Experiment: Oral bioavailability in Sprague-Dawley rat at 0.3 mg/kg
Assay type: ADME, organism-based
Settings: in vivo
reported endpoint: bioavailability (%)
Numeric only. Scale: %

Task: Request the reported bioavailability associated with `COCCCc1cc(CN(C(=O)[C@H]2CNCC[C@]2(O)c2ccc(F)c(F)c2)C2CC2)cc(OCCOC)c1`
Result: 17

* * *

Assay: Metabolic stability in Sprague-Dawley rat hepatocytes assessed as compound remaining at 10 uM after 2 hrs
Assay type: ADME, cell-based, Hepatocyte
Settings: read-out: Stability
reported endpoint: remaining at 2 h, 10 µM (%)
Numeric only. Scale: %

Task: Request the reported remaining at 2 h, 10 µM associated with `Cc1cccc(CN(C(=O)[C@H]2CNCC[C@@]23OCc2cc(F)c(F)cc23)C2CC2)c1C`
Result: 8

* * *

Assay: Clearance in Sprague-Dawley rat at 0.3 mg/kg, po
Format: ADME, organism-based
Set-up: dose 0.3 mg/kg, route oral
Conditions: in vivo
reported endpoint: CL/F (mL/min/kg)
Numeric only. Scale: mL/min/kg

Task: Request the reported CL/F associated with `COCCCc1cc(CN(C(=O)[C@H]2CNCC[C@]2(O)c2ccc(F)c(F)c2)C2CC2)cc(OCCOC)c1`
Result: 36

* * *

Assay: Half life in Beagle dog at 3 mg/kg, po and 1 mg/kg, iv
Format: ADME, organism-based, Canis lupus familiaris
Conditions: in vivo
reported endpoint: half-life

Task: Request the reported half-life associated with `COCCCc1cc(CCCN2CCOCC2)c(Cl)c(CN(C(=O)[C@H]2CNCC[C@@]23OCc2cc(F)c(F)cc23)C2CC2)c1.Cl.Cl.Cl`
Result: 10 h

* * *

Assay: Half life in Sprague-Dawley rat at 0.3 mg/kg, po
Type: ADME, organism-based
Set-up: dose 0.3 mg/kg, route oral
Conditions: in vivo
reported endpoint: half-life (h)
Numeric only. Scale: h

Task: Request the reported half-life associated with `COCCCc1cc(CN(C(=O)[C@H]2CNCC[C@]2(O)c2ccc(F)c(F)c2)C2CC2)cc(OCCOC)c1`
Result: 1.5

Cited source: ChEMBL document CHEMBL1921748
